# experimentalProtocol: Plasma pharmacokinetics of irinotecan and its metabolites
# condition: human, iv, 120 mg/m2
measuredMetric: Tmax

> print(dat)
                      structuresmilesstring  measvalue
1  CCc1c2c(nc3ccc(OC(=O)N4CCC(N5CCCCC5)CC4)cc13)-c1cc3c(c(=O)n1C2)COC(=O)[C@]3(O)CC      1.4 h

###

# experimentalProtocol: clinical
# condition: human, in vivo, 400 mg, Tmax
measuredMetric: Tmax (h)

> print(dat)
                                   molecule  measvalue
1  CNC(=O)c1cc(Oc2ccc(NC(=O)Nc3ccc(Cl)c(C(F)(F)F)c3)cc2)ccn1 [Sorafenib, reference compound]        4.1
